FYI, the data here is from ChEMBL document CHEMBL4393708.

test: Metabolic stability in human liver microsomes assessed as parent compound remaining after 30 mins by LC-MS analysis relative to control; assay type: ADME, Microsome; details: read-out: Stability
Readout Label: remaining at 0.5 h (%)
Number in %, nothing else.

// sample O=C(Nc1cc(-c2[nH]c(Cc3ccccc3)nc2-c2ccc(F)cc2)ccn1)C1CC1 , its remaining at 0.5 h was 78.1

Notebook: CSc1nc(-c2ccc(F)cc2)c(-c2ccnc(NC(=O)C3CC3)c2)[nH]1 , remaining at 0.5 h read as 89.6

###

Please go through the items and note down their remaining at 3 h.
experiment: Metabolic stability in human liver microsomes assessed as parent compound remaining after 180 mins by LC-MS analysis relative to control; assay type: ADME, Microsome; details: read-out: Stability
Response body: numeric value in %, unit text excluded.

// remaining at 3 h lookup, compound = CSc1nc(-c2ccc(F)cc2)c(-c2ccnc(NC(=O)C3CC3)c2)[nH]1 , result: 52.1

Looking up O=C(Nc1cc(-c2[nH]c(Cc3ccccc3)nc2-c2ccc(F)cc2)ccn1)C1CC1 , I found its remaining at 3 h recorded as 68.7
